Here the recorded inhibition is given for each entry.
biological target: Tubulin (Homo sapiens) (UniProt P68371+Q9H4B7+P0DPH7+P68366+Q13509+Q71U36+P04350+Q3ZCM7+P07437+P68363+Q9BQE3+Q6PEY2+Q13885+Q9BVA1+Q9BUF5); assay: Inhibition of [3H]colchicine binding to tubulin (unknown origin) at 5 uM incubated for 10 mins by scintillation counting relative to control; assay type: protein-complex assay
measurement_label: inhibition (%)

molecule | measurement_label | scale_unit | observed_measurement
COc1ccc(/C=C\c2cc(OC)c(OC)c(OC)c2)c(OC(C)C)c1O | inhibition | % | 94
COc1ccc(/C=C\c2cc(OC)c(OC)c(OC)c2)c(O)c1O [COMBRETASTATIN A-1] | inhibition | % | 99.6
COc1cc(/C=C\c2ccc(OC)c3c2OC(c2ccc([N+](=O)[O-])s2)O3)cc(OC)c1OC (stereo not given) | inhibition | % | 25
COc1cc(/C=C\c2ccc(OC)c(OC(C)c3ccc([N+](=O)[O-])s3)c2O)cc(OC)c1OC (stereo not given) | inhibition | % | 72
COc1ccc(/C=C\c2cc(OC)c(OC)c(OC)c2)c(OCc2ccc([N+](=O)[O-])s2)c1O | inhibition | % | 92

###

experiment: Stability of the compound in pH 7.4 potassium phosphate buffer assessed as compound hydrolysis after 48 hrs; format: physicochemical; details: read-out: Drug degradation
measurement_label: degraded at 48 h (%)

compound | observed_measurement
COc1cc(/C=C\c2ccc(OC)c(OCc3ccc([N+](=O)[O-])s3)c2O)cc(OC)c1OC | 0
COc1cc(/C=C\c2ccc(OC)c(OC(C)c3ccc([N+](=O)[O-])s3)c2O)cc(OC)c1OC (centres undefined) | 0
COc1ccc(/C=C\c2cc(OC)c(OC)c(OC)c2)c(OC(C)c2ccc([N+](=O)[O-])s2)c1O (centres undefined) | 0.5
COc1cc(/C=C\c2ccc(OC)c(OCc3ccc([N+](=O)[O-])s3)c2OC(C)C)cc(OC)c1OC | 1.59

###

Here the recorded inhibition is given for each entry.
target: Tubulin (Homo sapiens) (UniProt P68371+Q9H4B7+P0DPH7+P68366+Q13509+Q71U36+P04350+Q3ZCM7+P07437+P68363+Q9BQE3+Q6PEY2+Q13885+Q9BVA1+Q9BUF5); test: Inhibition of [3H]colchicine binding to tubulin (unknown origin) at 1 uM incubated for 10 mins by scintillation counting relative to control; type: protein-complex assay
measurement_label: inhibition

molecule | observed_measurement
COc1ccc(/C=C\c2cc(OC)c(OC)c(OC)c2)c(OC(C)c2ccc([N+](=O)[O-])s2)c1O (centres undefined) | 34%
COc1ccc(/C=C\c2cc(OC)c(OC)c(OC)c2)c(OCc2ccc([N+](=O)[O-])s2)c1O | 53%
COc1ccc(/C=C\c2cc(OC)c(OC)c(OC)c2)c(OS(=O)(=O)c2ccc(C)cc2)c1O | 50%
COc1ccc(/C=C\c2cc(OC)c(OC)c(OC)c2)c(OC(C)C)c1O | 72%
